Source listed as ChEMBL document CHEMBL1125671.

Test system: Murid betaherpesvirus 1
Experiment: compound was tested for antiherpes activity against MCMV(Smith) in tissue culture by plaque reduction assay
Assay type: functional
Details: read-out: ID50 (the source's name)
measurement.label: IC50 (nM)
Write the value in nM as a bare number.

Check out these entries, answers already filled in.
So for Nc1nc(O)c2ncn(C3CC(CO)C3CO)c2n1 (stereo not given) , the logged IC50 turned out to be 2000

So for Nc1ncnc2c1ncn2C1C[C@@H](CO)[C@@H]1CO (stereo not given in full) , the logged IC50 turned out to be 800

So for Nc1nc2c(ncn2COC(CO)CO)c(=O)[nH]1 , the logged IC50 turned out to be 4000

So for Nc1ncnc2c1ncn2C1CC(CO)C1CO (stereo not given) , the logged IC50 turned out to be 2000

---
So for Nc1nc(O)c2ncn(C3C[C@@H](CO)[C@@H]3CO)c2n1 (stereo not given in full) , the logged IC50 turned out to be 200

---

Tested on: Human alphaherpesvirus 1
Assay: compound was tested for antiherpes activity against HSV-1(Schooler) in tissue culture by plaque reduction assay
Assay type: functional
Settings: read-out: ID50 (the source's name)
measurement.label: IC50 (nM)
Write the value in nM as a bare number.

Check out these entries, answers already filled in.
So for Nc1nc2c(ncn2COC(CO)CO)c(=O)[nH]1 , the logged IC50 turned out to be 40

So for Nc1nc(O)c2ncn(C3CC(CO)C3CO)c2n1 (configuration not stated) , the logged IC50 turned out to be 80

So for Nc1nc(O)c2ncn(C3C[C@@H](CO)[C@@H]3CO)c2n1 (some centres not stated) , the logged IC50 turned out to be 20

So for Nc1ncnc2c1ncn2C1CC(CO)C1CO (configuration not stated) , the logged IC50 turned out to be 8000

--- query ---
So for Nc1ncnc2c1ncn2C1C[C@@H](CO)[C@@H]1CO (some centres not stated) , the logged IC50 turned out to be 2000
